Molecular target: gEgI WT: HSV2 gEgI heterodimer comprising gE and gI wildtype ectodomains (HSV2, UniProt P89475 21-416; P06764 21-256)
Test: SPR binning; gEgI captured by mAb 45
Label key: True means RU under -3 RU; False means RU of -3 RU or more.

1. mAb clone 34 (antibody, V domains shown) VH: EVKLVESGGGLVQPGGSLKLSCATSGFTFSDYYMYWVRQTPEKRLEWVAYISNGGDSTYYPDTVKGRFTISRDNAKNTLYLQMSRLKSEDTAMYYCARSYYGNPFPYWGQGTLVTVSA VL: ENVLTQSPAIMSASPGEKVTMTCRASSSVSSSYLHWYQQKSGASPKLWIYSTSNLASGVPARFSGSGSGTSYSLTISSVEAEDAATYYCQQYSGYPLTFGAGTKLELK	True
2. mAb clone 20 (antibody, V domains shown) VH: QVQLQQSGAELVRPGTSVKVSCKASGYAFTNYLIEWVKQRPGQGLEWIGVINPGSGGTNYNEKFKGKATLTADKSSSTAYMQLSSLTSDDSAVYFCARSHYGNYYAMDYWGQGTSVTVSS VL: NIVLTQSPASLAVSLGQRATISCRASESVDSYGNSFMHWYQQKPGQPPKLLIYLASNLESGVPARFSGSGSRTDFTLTIDPVEADDAATYYCQQNNEDPWTFGGGTKLEIK	False
3. mAb clone 17 (antibody, V domains shown) VH: QVQLKESGPGLVAPSQSLSITCTVSGFSLTSYGVHWVRQPPGKGLEWLGVIWAGGSSNYNSALMSRLSISKDNSKSQVFLKMNSLQTDDTAMYYCARDGYGYVYYAMDYWGQGTSVTVSS VL: DIVMTQAAPSVPVTPGESVSISCRSSKSLLHSNGNTYLYWFLQRPGQSPQLLIYRMSNLASGVPDRFSGSGSGTAFTLRISRVEAEDVGVYYCMQHLEYPFTFGAGTKLELK	False
4. mAb clone 39 (antibody, V domains shown) VH: EVKLVESGGGLVQPGGSLKLSCAASGFTFSSYTMSWVRQTPEKRLEWVAYISNGGGSTYYPDTVKGRFTISRDNAKNTLYLQMSSLKSEDTAMYYCARGVSYYGDLYYFDYWGQGTTLTVSS VL: DVVVTQTPLSLPVSFGDQVSISCRSSQSLANSYGNTYLSWYLHKPGQSPQLLIYGISNRFSGVPDRFSGSGSGTDFTLKISTIKPEDLGMYYCLQGTHQPWTFGGGTKLEIK	True
5. mAb clone 15 (antibody, V domains shown) VH: QVQLKESGPGLVAPSQSLSITCTVSGFSLTSYGVSWVRQPPGKGLEWLGVIWGDGSTNYHSALISRLSISKDNSKSQVFLKLNSLQTDDTATYYCAKPDLYYDSPYAMDYWGQGTSVTVSS VL: DIQMTQSPASLSASVGETVTITCRASGNIHNYLAWYQQKQGKSPQLLVYNAKTLADGVPSRFSGSGSGTQYSLKINSLQPEDFGSYYCQHFWSTPWTFGGGTKLEIK	False
6. mAb clone 24 (antibody, V domains shown) VH: EVQLQQSGPELVKPGASVKMSCKASGYTFTDYYMKWVKQSHGKSLEWIGDINPNNGDTFYNQKFKGKATLTVDKSSSTAYMQLNSLTSEDSAVYYCARRGFYYYGSRGGIMDYWGQGTSVTVSS VL: NIMMTQSPSSLAVSAGEKVTMSCKSSQSVLYSSNQKNYLAWYQQKPGQSPKLLIYWASTRESGVPDRFTGSGSGTDFTLTISSVQAEDLAVYYCHQYLSSYTFGGGTKLEIK	False
7. mAb clone 19 (antibody, V domains shown) VH: QVQLQQSGAELVRPGVSVKISCKGSGYTFTDYAMHWVKQSHAKSLEWIGVISTYYGDARYNQKFKGKATMTVDKSSSTAYMELARLTSEDSAIYYCARRGITVVADYAMDYWGQGTSVTVSS VL: QIVLTQSPAIMSASPGEKVTMSCSASSSVTYMHWYQQKSGTSPKRWIYDTSKLASGVPARFSGSGSGTSYSLTISSMEAEDAATYYCQQWSSNPPTFGGGTKLEIK	False
8. mAb clone 40 (antibody, V domains shown) VH: QIQLVQSGPELKKPGETVKISCKASGYTFTNYGMNWVKQAPGKGLKWMGWINTYTGEPTYADDFKGRFAFSLETSASTAYLQINNLKNEDTATYFCARSLYGYDEGYFDVWGAGTTVTVSS VL: DIQMTQSPASLSASVGETVTITCRASGNIHNYLAWYQQKQGKSPQLLVYNAKTLADGVPSRFSGSGSGTQYSLKINSLQPEDFGSYYCQHFWSTPYTFGGGTKLEIK	False
